system: Acinetobacter baumannii; test: Antibacterial activity against Acinetobacter baumannii ATCC 17961 assessed as reduction in bacterial growth incubated for 18 to 20 hrs by broth microdilution method; format: functional
Reported MIC values are given for each entry in this list.

// known answers, use as guide
[[record]]
compound = "C[C@H]1COC2(CCN(c3nc(=O)c4cc(C(F)(F)F)cc([N+](=O)[O-])c4s3)CC2)O1"
experimental_target = "Acinetobacter baumannii"
meas_value = "> 200 µM"

[[record]]
compound = "O=C(O)c1cn(C2CC2)c2cc(N3CCNCC3)c(F)cc2c1=O"
experimental_target = "Acinetobacter baumannii"
meas_value = "0.156 µM"

[[record]]
compound = "C[C@H]1COC2(CCN(c3nc(=O)c4cc(C(F)(F)F)cc([N+](=O)[O-])c4[s+]3[O-])CC2)O1 (some centres undefined)"
experimental_target = "Acinetobacter baumannii"
meas_value = "> 200 µM"


Problem: Bench note: what MIC did `C[C@H]1COC2(CCN(C3=NC(=O)c4cc(C(F)(F)F)cc([N+](=O)[O-])c4S3(=O)=O)CC2)O1` show?
Solution: > 200 µM

====

assay: Cytotoxicity against human HeLa cells after 72 hrs by crystal violet biomass reduction assay; type: cell-based
Entries and their CC50 at 72 h values follow.

[[record]]
molecule = "C[C@H]1COC2(CCN(C3=NC(=O)c4cc(C(F)(F)F)cc([N+](=O)[O-])c4S3(=O)=O)CC2)O1"
meas_value = "> 20 µM"


Problem: Which CC50 at 72 h value belongs to `C[C@H]1COC2(CCN(c3nc(=O)c4cc(C(F)(F)F)cc([N+](=O)[O-])c4s3)CC2)O1` ?
Solution: > 20 µM

Problem: Next: C[C@H]1COC2(CCN(c3nc(=O)c4cc(C(F)(F)F)cc([N+](=O)[O-])c4[s+]3[O-])CC2)O1 (stereo partly drawn)
Solution: > 20 µM
